Each recorded value in this set is attributed to paper PMC9352680.

Recorded pKd, one value per entry.
- system: T1, PUF4 RNA-binding domain (Saccharomyces cerevisiae, UniProt P25339 537-888)
- T1 sequence: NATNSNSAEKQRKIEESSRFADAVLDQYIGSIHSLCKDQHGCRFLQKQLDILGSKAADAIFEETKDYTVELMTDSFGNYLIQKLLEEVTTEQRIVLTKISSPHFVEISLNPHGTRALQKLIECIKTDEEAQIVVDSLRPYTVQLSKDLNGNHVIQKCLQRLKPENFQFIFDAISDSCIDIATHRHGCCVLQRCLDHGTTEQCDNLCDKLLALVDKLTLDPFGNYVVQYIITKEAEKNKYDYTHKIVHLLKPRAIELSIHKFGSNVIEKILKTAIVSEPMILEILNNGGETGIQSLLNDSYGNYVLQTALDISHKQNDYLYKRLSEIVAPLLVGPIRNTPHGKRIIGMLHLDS
- procedure_text: Mg; RNA-MaP; 20 mM Na-HEPES pH 7.4, 30 mM KOAc, 0.75 mM MgCl2, 0.1% Tween-20, 5% glycerol, 0.1 mg/mL BSA, 2 mM DTT; 25 C; 0.0125-409.6 nM protein
- applied_conditions: tags: N-His6-TEV cleaved; C-SNAP kept, Cy3B-labelled; label: tethered on chip by stalled RNA polymerase
pKd: −log10 of the molar value.
measured_attribute: pKd

ACAAACCUACACUAUAUGACAAAC (ssRNA) [Id_ii_S3_P3E.4_K3.3_C3.2_H3.3_A3.1_F3.1_T3.2_[A10G]]; < 5.64
Id_ii_S2_P4E.4_K4.3_C4.2_[T-1C]_H4.3_A4.1_F4.1_T4.2_[G10A]_[T11A] (ssRNA) RNA: UUUGAUUAAUAUGAUAUCGUUCUUUCUCCACACUAUUAAAUUCUUUCUCGAUAUCAUAUUAAUCUUU; < 5.64
Id_ii_S2_P4E.4_K4.3_C4.2_[C-2A]_[T-1A]_H4.3_A4.1_F4.1_T4.2_[G10A] (ssRNA) RNA: UUUGAUUAAUAUGAUAUCGUUCUUUCUAAACACUAUUAAUUUCUUUCUCGAUAUCAUAUUAAUCUUU; < 5.64
UCUCUUUAACACUUAUUACCUCUCUU (ssRNA) [Id_ii_S1_P5E.4_K5.3_C5.2_[C-2T]_[T-1A]_H5.3_A5.1_F5.1_T5.2_[T11C]_[A12C]]; < 5.64
